I'd be grateful if you could share measured cell count for these entries.
test: sensitizers of A549 cells to miR-34 induction, primary screen, imaging, A549 dox-inducible miR-34, nuclei and caspase counts (AID 1347080); conditions: A549 miR-34 inducible, Hoechst nuclei count, 48 h; measured here: total cells without miR-34 induction; note: test concentration not given here

Look over these answered cases.
CCCCC/C=C\C/C=C\C/C=C\C/C=C\CCCC(=O)Nc1ccc2c(C)cc(=O)oc2c1 : 5510
CCn1cnc2c(Nc3cccc(Cl)c3)nc(N[C@@H]3CCCC[C@@H]3N)nc21 : 812
C[C@@H]1CC[C@@]2(NC1)O[C@H]1C[C@H]3[C@@H]4CC=C5C[C@@H](O)CC[C@]5(C)[C@H]4CC[C@]3(C)[C@H]1[C@@H]2C : 10300

Switching to the query record.
Check the records and state cell count for O=C(NCNC(=O)NC1C(=O)NC(=O)N1CO)NC1C(=O)NC(=O)N1CO (centres undefined)
10200
